System: NCI/ADR-RES ovarian
Test: NCI tumour cell line growth inhibition, 48 h; in the data active = GI50 below about 0.43 µM; inactive = the rest
Write down one outcome, taken from true (active), false (inactive)

Answered cases to consult:
[
  {
    "smiles.entry": "COc1ccc2c(CN3CCC(CO)CC3)cc3cc4c(cc3c2c1)OCO4",
    "tested.target": "NCI/ADR-RES ovarian",
    "class": "true"
  },
  {
    "smiles.entry": "O=C1c2cccnc2-c2nc(-c3ccccn3)cc3c2c1nc1ccccc13",
    "tested.target": "NCI/ADR-RES ovarian",
    "class": "true"
  },
  {
    "smiles.entry": "O=C1C(Cl)=C(Oc2ccccc2)C(=O)c2ccccc21",
    "tested.target": "NCI/ADR-RES ovarian",
    "class": "false"
  },
  {
    "smiles.entry": "CCNCCNc1cc(-c2ccc(Cl)cc2)c(C#N)c2nc3ccccc3n12",
    "tested.target": "NCI/ADR-RES ovarian",
    "class": "false"
  },
  {
    "smiles.entry": "Cc1cc(S(=O)(=O)Nc2nnc(-c3ccco3)c(-c3ccco3)n2)c(SCc2ccccc2)cc1Cl",
    "tested.target": "NCI/ADR-RES ovarian",
    "class": "false"
  }
]

Shifting focus to the compound that follows.
Exercise: Can you look up the reported call for Clc1ccc(N2COOC3(OOC2)C2CC4CC(C2)CC3C4)cc1 for me?
Solution: false

* * *

Would you mind telling me the reported TGI of each entry?
Tested on: NCI-H226 lung
Assay: NCI tumour cell line growth inhibition, 48 h
Numbers only, in µM.

[
  {
    "compound": "C=C1C(=O)O[C@H]2[C@H]1CC/C(COC(=O)/C=C/c1cccnc1)=C\\CC[C@@]1(C)O[C@@H]21",
    "tested.target": "NCI-H226 lung",
    "data.value": 9.98
  },
  {
    "compound": "CC(C)(C)[Si](C)(C)OC1[C@@H](O[Si](C)(C)C(C)(C)C)[C@@H](CNC(=O)NC(=O)NC(=O)CI)O[C@H]1n1cnc2c(NC(=O)Nc3ccccc3)ncnc21 (some centres undefined)",
    "tested.target": "NCI-H226 lung",
    "data.value": 20.6
  }
]

Shifting focus to the compound that follows.
Exercise: Please look up its TGI: COc1ccc(C[C@H]2NC[C@H](OC(C)=O)[C@H]2OC(C)=O)cc1
Solution: 1.08

* * *

Tested on: MDA-MB-231 breast
Test: NCI tumour cell line growth inhibition, 48 h
property.measured: TGI

[
  {
    "molecule": "Cc1ccc(-n2nnc3c(NNc4ccccc4)n[nH]c(=O)c32)cc1",
    "tested.target": "MDA-MB-231 breast",
    "TGI": "> 100 µM"
  },
  {
    "molecule": "COc1ccc(/C=C/C(=N/NC(=O)N/N=C(/C=C/c2ccc(OC)cc2)C(C)C)C(C)C)cc1",
    "tested.target": "MDA-MB-231 breast",
    "TGI": "> 100 µM"
  },
  {
    "molecule": "Cc1cccc(/C=N/NC(=S)NC2CCCCC2)n1",
    "tested.target": "MDA-MB-231 breast",
    "TGI": "> 100 µM"
  },
  {
    "molecule": "COc1nc(N)nc2c1n(C)c[n+]2C",
    "tested.target": "MDA-MB-231 breast",
    "TGI": "> 100 µM"
  },
  {
    "molecule": "COC1/C=C/C(C)C(C(C)C(OC)C(C)CCC(=O)C(C)C(CC(=O)O)OC)OC(=O)/C=C/C=C(\\C)CC(OC)C(OC)C2=CC(=O)O[C@@H](C(C)C(OC)CC(OC)/C=C/C(C)C(O)C1)[C@H]2O (stereo partly specified)",
    "tested.target": "MDA-MB-231 breast",
    "TGI": "0.754 µM"
  },
  {
    "molecule": "N#Cc1c(Cl)cccc1Oc1ccc(S(=O)(=O)/N=C(\\NO)Nc2ccc(Cl)cc2)cc1",
    "tested.target": "MDA-MB-231 breast",
    "TGI": "37.4 µM"
  }
]

Give one value of TGI per listed molecule.
1. C=C1C(=O)OC2C1C(OC(=O)/C(C)=C/C)CC(O)(CCl)C1C(OC(C)=O)C=C(C)C21O (stereo unspecified)
2. COc1ccc(C[C@H]2NC[C@H](OC(C)=O)[C@H]2OC(C)=O)cc1
3. O=C1c2cccnc2-c2nc(-c3ccccn3)cc3c2c1nc1ccccc13

Solution:
["38.1 µM", "1.49 µM", "0.5 µM"]

Give one value of TGI per listed molecule.
1. COP(=N[Si](C)(C)C)(OC)OC
2. COc1cc2c3c(n(CCCO)c(=O)c2cc1OC)-c1cc2c(cc1C3=O)OCO2
3. O=C(O)C(Cc1ccccc1-c1ccccc1)C(=O)O
4. CCOC(=O)c1csc(NC(=O)CN2CCCCC2)n1
5. CCOC(=O)Nn1cnnc1Cc1ccccc1
6. Nc1nc([O-])c([I+]c2ccccc2)c(=O)[nH]1
7. Cc1cc(S(=O)(=O)Nc2nnc(-c3ccco3)c(-c3ccco3)n2)c(SCc2ccccc2)cc1Cl
8. C(=C\c1ccccc1)/Cn1nc(-c2ccccc2)nc1-c1cnccn1

Solution:
1: > 100 µM; 2: > 76.6 µM; 3: > 100 µM; 4: > 100 µM; 5: > 100 µM; 6: > 100 µM; 7: 47.6 µM; 8: > 100 µM

Give one value of TGI per listed molecule.
1. COc1c(O)cc2oc3cc(O)c(CC=C(C)C)c(O)c3c(=O)c2c1C/C=C(\C)CCC=C(C)C
2. Cc1nc2ccc(S(=O)(=O)Nc3ccccn3)cc2c(=O)n1NS(=O)(=O)c1ccccn1
3. CC(=O)C(C(=N)C#N)C(=O)Nc1ccccc1 (stereo unspecified)
4. COC(=O)C1=C(C(=O)OC)C2(c3ccccc3)c3ccccc3C(=O)C1N2C1CCCCC1 (stereo unspecified)

Solution:
1. 11.2 µM
2. > 100 µM
3. > 100 µM
4. > 100 µM

* * *

Would you mind telling me the reported log10 of TGI of each entry?
System: UACC-62 melanoma
Test: NCI tumour cell line growth inhibition, 48 h
Kindly note that the scale is log10 and the underlying TGI is in µM.

Worked examples, 3 molecules total:
[
  {
    "molecule": "O=C(c1c(F)c(F)c(F)c(F)c1F)n1c(=O)[nH]c2ccccc21",
    "tested.target": "UACC-62 melanoma",
    "log10 of TGI": 1.41
  },
  {
    "molecule": "Cc1cc(S(=O)(=O)Nc2nnc(-c3ccco3)c(-c3ccco3)n2)c(SCc2ccccc2)cc1Cl",
    "tested.target": "UACC-62 melanoma",
    "log10 of TGI": 1.57
  },
  {
    "molecule": "Brc1nc2c3ccccc3ncn2c1Br",
    "tested.target": "UACC-62 melanoma",
    "log10 of TGI": 1.69
  }
]

Give one value of log10 of TGI per listed molecule.
1. CCN(Cc1ccc(F)cc1F)c1ccc(CO)c(Cl)c1
2. COC1C(=[N+]=[N-])C(=O)NC(=O)N1C1OC(COC(c2ccccc2)(c2ccccc2)c2ccccc2)C(O)C1O (stereo not given)

Solution:
1. -0.24
2. 1.48

* * *

Tested on: SNB-19 CNS
Test: NCI tumour cell line growth inhibition, 48 h
Would you mind telling me the reported GI50 of each entry?

Worked examples, 8 molecules total:
[
  {
    "smiles.entry": "Cc1cc(S(=O)(=O)Nc2nnc(-c3ccco3)c(-c3ccco3)n2)c(SCc2ccccc2)cc1Cl",
    "GI50": "21.7 µM"
  },
  {
    "smiles.entry": "O=C(Nc1cccc(NS(=O)(=O)c2ccc(F)cc2)c1)c1ccc(-c2ccccc2)cc1",
    "GI50": "3.4 µM"
  },
  {
    "smiles.entry": "COc1ccc(-n2c(-c3ccc(NC(=O)CCCl)cc3)nnc2-c2cc(OC)c(OC)c(OC)c2)cc1",
    "GI50": "4.33 µM"
  },
  {
    "smiles.entry": "COc1cc2c3c(n(CCCO)c(=O)c2cc1OC)-c1cc2c(cc1C3=O)OCO2",
    "GI50": "14.5 µM"
  },
  {
    "smiles.entry": "O=c1oc2ccccc2c(Cl)c1Cl",
    "GI50": "10.5 µM"
  },
  {
    "smiles.entry": "COc1cccc(-c2nc(-c3ccc(NS(=O)(=O)c4ccccc4)cc3)[nH]c2-c2ccnc(Br)c2)c1",
    "GI50": "4.03 µM"
  },
  {
    "smiles.entry": "O=C(Nc1cccc(C2=NCCN2)c1)c1ccc(OCCCOc2ccc(C(=O)Nc3cccc(C4=NCCN4)c3)cc2)cc1",
    "GI50": "2.69 µM"
  },
  {
    "smiles.entry": "COc1ccc2c(CN3CCC(CO)CC3)cc3cc4c(cc3c2c1)OCO4",
    "GI50": "0.392 µM"
  }
]

Shifting focus to the molecule that follows.
Exercise: Please look up its GI50: N.N.NCCCCN.O=C([O-])CC(=O)[O-].O=C([O-])CC(=O)[O-].[Pt+4].[Pt+4]
Solution: > 100 µM
